Test system: Escherichia coli
Experiment: Antimicrobial activity against Escherichia coli ATCC […] carrying Edwardsiella ictaluri pM07-1 by microdilution assay
Format: functional

- item.smiles: "COc1cc(Cc2cnc(N)nc2N)cc(OC)c1OC"
  comparison.sign: "="
  MIC, µg/mL: 1
- item.smiles: "CC1(C)S[C@@H]2[C@H](NC(=O)[C@H](N)c3ccc(O)cc3)C(=O)N2[C@H]1C(=O)O"
  comparison.sign: ">"
  MIC, µg/mL: 32
- item.smiles: "CN[C@@H]1[C@H](O[C@H]2[C@H](O[C@H]3[C@H](O)[C@@H](O)[C@H](N=C(N)N)[C@@H](O)[C@@H]3N=C(N)N)O[C@@H](C)[C@]2(O)C=O)O[C@@H](CO)[C@H](O)[C@H]1O"
  comparison.sign: ">"
  MIC, µg/mL: 64
- item.smiles: "CC1(C)S[C@@H]2[C@H](NC(=O)[C@H](N)c3ccccc3)C(=O)N2[C@H]1C(=O)O"
  comparison.sign: ">"
  MIC, µg/mL: 32
- item.smiles: "CO/N=C(\\C(=O)N[C@@H]1C(=O)N2C(C(=O)O)=C(CSC(=O)c3ccco3)CS[C@H]12)c1csc(N)n1"
  comparison.sign: ">"
  MIC, µg/mL: 8
- item.smiles: "O=C(O)[C@H]1/C(=C/CO)O[C@@H]2CC(=O)N21"
  comparison.sign: "="
  MIC, µg/mL: 16
- item.smiles: "Cc1cc(NS(=O)(=O)c2ccc(N)cc2)no1"
  comparison.sign: "="
  MIC, µg/mL: 19
- item.smiles: "CN(C)[C@@H]1C(O)=C(C(N)=O)C(=O)[C@@]2(O)C(O)=C3C(=O)c4c(O)cccc4[C@@](C)(O)[C@H]3C[C@@H]12"
  comparison.sign: "="
  MIC, µg/mL: 32
